Target: LonP1 C637S (Homo sapiens, UniProt P36776, C637S)
Construct: hexa-histidine (N)
Sequence (P36776 68-959 C637S): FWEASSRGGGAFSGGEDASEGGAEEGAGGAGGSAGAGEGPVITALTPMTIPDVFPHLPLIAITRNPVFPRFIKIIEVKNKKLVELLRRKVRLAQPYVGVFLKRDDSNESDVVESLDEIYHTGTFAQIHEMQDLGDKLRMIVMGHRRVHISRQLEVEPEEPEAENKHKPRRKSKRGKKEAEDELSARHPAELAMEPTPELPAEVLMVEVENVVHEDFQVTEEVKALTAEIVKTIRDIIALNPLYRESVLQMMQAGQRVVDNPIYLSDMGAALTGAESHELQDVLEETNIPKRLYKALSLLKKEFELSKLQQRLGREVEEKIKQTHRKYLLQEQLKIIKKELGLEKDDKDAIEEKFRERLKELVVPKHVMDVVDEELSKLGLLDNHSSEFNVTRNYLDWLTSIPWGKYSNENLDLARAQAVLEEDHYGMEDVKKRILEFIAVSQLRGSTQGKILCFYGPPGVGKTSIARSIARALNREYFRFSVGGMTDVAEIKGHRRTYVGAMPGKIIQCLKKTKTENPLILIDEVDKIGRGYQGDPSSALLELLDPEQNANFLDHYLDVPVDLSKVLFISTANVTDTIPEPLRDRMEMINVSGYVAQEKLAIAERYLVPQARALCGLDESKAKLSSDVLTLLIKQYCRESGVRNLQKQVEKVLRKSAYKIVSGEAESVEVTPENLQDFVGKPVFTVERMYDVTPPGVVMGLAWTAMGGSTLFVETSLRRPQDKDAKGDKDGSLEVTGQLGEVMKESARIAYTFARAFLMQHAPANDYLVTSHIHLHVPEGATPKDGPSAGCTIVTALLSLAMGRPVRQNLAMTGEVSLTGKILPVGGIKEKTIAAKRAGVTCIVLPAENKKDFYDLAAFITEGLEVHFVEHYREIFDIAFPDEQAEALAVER
Assay: Endpoint ATPase assay, LonP1 C637S
Details: end-point ATPase assay, N = 1, read-out: CDDO IC50
metric-name: IC50 (µM)
Numbers only, in µM.

Req: Answer with the recorded IC50 for the compound listed here: CC1(C)CC[C@]2(C(=O)O)CC[C@]3(C)[C@H](C(=O)C=C4[C@@]5(C)C=C(C#N)C(=O)C(C)(C)[C@@H]5CC[C@]43C)[C@@H]2C1
Resp: 3

###

Target: LonP1 C576V (Homo sapiens, UniProt P36776, C576V)
Construct: hexa-histidine (N)
Sequence (P36776 68-959 C576V): as the sequence (P36776 68-959 C637S) above, with C509V, S570C counted along it
Test: Endpoint ATPase assay, LonP1 C576V
Settings: end-point ATPase assay, read-out: CDDO IC50
metric-name: IC50 (µM)
Give bare numbers, in µM.

Req: Answer with the recorded IC50 for the compound listed here: CC1(C)CC[C@]2(C(=O)O)CC[C@]3(C)[C@H](C(=O)C=C4[C@@]5(C)C=C(C#N)C(=O)C(C)(C)[C@@H]5CC[C@]43C)[C@@H]2C1
Resp: 5.2
